Attribution: the supplement of paper PMC6555819

- Tested on: LXRa:RXRa (NR concentration 270 nM, RXRa partner concentration 90 nM)
- method.description: PBM binding z-score (relative to random genomic background probes); higher = stronger binding; sequences stand for … in GC…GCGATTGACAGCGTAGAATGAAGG
Tick y if PBM binding z-score is -0.005 or greater. Tick n if PBM binding z-score is less than -0.005.

## Task Textbook exercise: given the entry `AGAATGAGGTTACCAAACATCAGGGAAACGCTTG` , state whether its PBM binding z-score is greater than or equal to -0.005.
## Result y

## Task Exam item: decide whether the reported PBM binding z-score for `ACTAGCAGGCCTAGTTTGGGTCACTCAAACAAAG` is at least -0.005.
## Result n

## Task Can `ATTGAAAGGTCGACGAGGTGAGTATACACCGTTT` be said to have PBM binding z-score at or above -0.005?
## Result y

## Task Hi team, for `GCATATAGGTAATACAAGGTGAGAGTCCGATTGT` , is the recorded PBM binding z-score at or above -0.005?
## Result y

## Task Hello, I need to know if `GATACAGGGTCAGCTAGAGGCCAGTGTATGGAAA` has measured PBM binding z-score not below -0.005. Thanks!
## Result y

---

- Tested on: VDR:RXRa (NR concentration 270 nM, RXRa partner concentration 90 nM)
- method.description: PBM binding z-score (relative to random genomic background probes); higher = stronger binding; sequences stand for … in GC…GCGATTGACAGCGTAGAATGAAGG
PBM binding z-score of 0.3 or higher: Yes. Under 0.3: No.

## Task // inclusive: PBM binding z-score at least 0.3? input: `CCGAGTAGATTATGGGGCATTCAGGCAACGGTGA`
## Result No

## Task Say whether `TCATATAGGTACATGCTAGGTGAAAGTCCGATCT` shows PBM binding z-score of 0.3 or more.
## Result Yes

## Task Does the reported PBM binding z-score for `CCTAGTTGGTCAAGAGGTCACACACCGGATATGA` fall at or above the 0.3 mark?
## Result Yes

## Task Assess whether reported PBM binding z-score for `TAGCCTAGGTCATGCGGGCCAGTATCGTGTCGGC` sits at 0.3 or higher.
## Result Yes

## Task Does the sequence `CCGCCTGGGGCAAGGTTACCATAACGCACAGCCA` have recorded PBM binding z-score that is 0.3 or more?
## Result No

## Task Identify whether the reported PBM binding z-score of the following sequence is 0.3 or greater: `AGTCAAAGTTCATCTAAGTAACGTAAGATATGCT`
## Result Yes

## Task Test whether the sequence `CCTGACAGGTGAAAGGTAACTCAGTCTGGTACGC` records PBM binding z-score of 0.3 or higher.
## Result Yes

---

- Test system: PXR:RXRa (NR concentration 270 nM, RXRa partner concentration 90 nM)
- method.description: PBM binding z-score (relative to random genomic background probes); higher = stronger binding; sequences stand for … in GC…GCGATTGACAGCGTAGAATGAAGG
So I've got a bunch of sequences here, and I need their PBM binding z-score values.
I'd appreciate a reply containing only the number, no unit.

## Task What does the record list as PBM binding z-score for `ACTAGTTGATCAGCTGAGGTCACACACAATTCGG` ?
## Result 4.97

## Task Form field: reported PBM binding z-score of `CCAGCCAGGTGAAAGGTAACTCAGTCTGGTACGC`
## Result 0.479

## Task Which PBM binding z-score value is on record for `CCTAGTTGGTCCGGAGGTCACACACCGGATATGA` ?
## Result 4.13

## Task Requested field: PBM binding z-score. Item: `TCATATAGGTAAATGTGAAAGTCGAACGATATGA`
## Result 0.168

## Task Report PBM binding z-score for `AGAACGAGGGCAATGAGTTGATAACACGGGTGGC` please.
## Result 1.53

## Task Give its PBM binding z-score value. Item: `TCGAGTAGGTTATCAATGGGGCATTCAGCTTTCT`
## Result 0.223

## Task Reported PBM binding z-score, sequence `CAAACTAGGTCACCGGAAGGTCAATGTCCGCATG` : ____
## Result 5.65

## Task Which PBM binding z-score is listed for `CCTGCTAGGTCCATGGTCAGCTAAAGCAGCTCGC` ?
## Result -0.449

## Task What value of PBM binding z-score has been recorded for this entry: `ACTAGTTGGTCAGCTGAGGTCACATACAATTCGG`
## Result 5.26

## Task Returns the measured PBM binding z-score for the input sequence. Input: `GCTGGTAGGTCAGGTTGGTCAGCTAACGGGTACG`
## Result 0.581

## Task # query: PBM binding z-score of entry `GCATATAGGTAATATAAGGTGAAAGTCCGATTGT`
## Result 0.702

## Task Consider the sequence `CCTCGGAGGACAGAAGGTCAGAGCCGTCCGCTTT` and give its measured PBM binding z-score.
## Result 1.78

---

Please respond with reported PBM binding z-score for every item in the list.
- Tested on: PPARg:RXRa (NR concentration 180 nM, RXRa partner concentration 90 nM)
- method.description: PBM binding z-score (relative to random genomic background probes); higher = stronger binding; sequences stand for … in GC…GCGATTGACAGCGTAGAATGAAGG

## Task Please state recorded PBM binding z-score (tested on PPARg:RXRa (NR concentration 180 nM, RXRa partner concentration 90 nM)) of `ATCTATAGGTAAGACTCAGTTCAGTGAAGAACGC`
## Result 0.534

## Task Record lookup: for PPARg:RXRa (NR concentration 180 nM, RXRa partner concentration 90 nM), what PBM binding z-score belongs to `ACTAGCAGGCCAAGGGTCAATCAAGATTAGTCCG` ?
## Result 8.14

## Task Reported PBM binding z-score for PPARg:RXRa (NR concentration 180 nM, RXRa partner concentration 90 nM), given `CCTAGTAGGTCAGGAGGTCACACACCGGATATGA` ?
## Result 9.01

## Task Recall the recorded PBM binding z-score for `ATCTCTAGGTAACCAAGTTCAGTCAATGCCGAAC` with PPARg:RXRa (NR concentration 180 nM, RXRa partner concentration 90 nM) and state it.
## Result 0.836

## Task Find PBM binding z-score (PPARg:RXRa (NR concentration 180 nM, RXRa partner concentration 90 nM)) for the entry `ATATGTAGGTTAAGGGTCACTCAGGTTGGTTCGC`
## Result 11.8

## Task Give recorded PBM binding z-score with PPARg:RXRa (NR concentration 180 nM, RXRa partner concentration 90 nM) for the following sequence: `CCGACTGGGGCAGAAGGTTACCATAAGCCAGCCC`
## Result 1.92

## Task Hello, I am looking for reported PBM binding z-score with PPARg:RXRa (NR concentration 180 nM, RXRa partner concentration 90 nM) for `ACTAGCAGGCCAAGTTTGGGTCAATCAAACAAAG` . Could you help?
## Result -0.0982

## Task Request: PBM binding z-score, test system PPARg:RXRa (NR concentration 180 nM, RXRa partner concentration 90 nM), entry `CCAGACGGGTGAGAAGGTAACTCAGCCTCGATTA`
## Result 0.208

## Task Lab note: need PBM binding z-score for `ACAGACAGTTGAGTGAAGGTAACTCAGCTGGACG` on PPARg:RXRa (NR concentration 180 nM, RXRa partner concentration 90 nM), anyone have it?
## Result 0.557

## Task Item: `TAGCCTCGGTCAGATCGGGCCAGTATACGCTATA` Test system: PPARg:RXRa (NR concentration 180 nM, RXRa partner concentration 90 nM) Read-out: PBM binding z-score Value: ?
## Result 0.128

## Task Record `TCATATAGGTAAATGCTAGGTGAAAGTGCGATCT` : what is its PBM binding z-score with PPARg:RXRa (NR concentration 180 nM, RXRa partner concentration 90 nM)?
## Result 1.89

## Task Entry `TCATATAGGTAAATGCTAAGTGAAAGTCCGATCT` , system PPARg:RXRa (NR concentration 180 nM, RXRa partner concentration 90 nM): what PBM binding z-score was measured?
## Result 0.762

---

- System: LXRb homodimer (NR concentration 270 nM)
- method.description: PBM binding z-score (relative to random genomic background probes); higher = stronger binding; sequences stand for … in GC…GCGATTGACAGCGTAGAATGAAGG
measured.attribute: PBM binding z-score
Answer as a number with no unit attached.

## Task Look up PBM binding z-score: `ATCTCTAGGAAACAAGTTCAGTGAAAGAGAGGAC`
## Result 0.528

## Task If you can, please state the reported PBM binding z-score value of `CGAACTAAGTCAAGGACAGTGAATCTCCGCACGC` .
## Result -0.793

## Task Can you look up the measured PBM binding z-score of `TATACAGGGTCATAGGCCAGAGTACGAATGTCGA` for me?
## Result 1.7

## Task Which PBM binding z-score reading was recorded for the sequence `CCTACTGGGCCACCAGGTCATTGATATCAACGTT` ?
## Result -0.0133

## Task Can you look up the measured PBM binding z-score of `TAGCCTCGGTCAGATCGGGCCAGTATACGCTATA` for me?
## Result -0.951

## Task Quick check: PBM binding z-score of `CCTACTGGGCCATCAGGTCATTGCTATCAACGTT` ?
## Result -0.479

## Task Quick one: PBM binding z-score of `GCGACTGGGGCAAAGCCGGTTACCATAAGGTTGG` ?
## Result -1.01

## Task Requested field: PBM binding z-score. Item: `TCTAGTTGGTCACGGAGGTCACAGACGACGGGTA`
## Result 0.321

## Task Field request: PBM binding z-score | item: `TAGCTTAGGTCATGCGGGCCAGTATAGTGTCGGC`
## Result 0.519

## Task // query PBM binding z-score value for entry `AGATTGAGGTTAAGATCAGGGAAACAGAATACAT`
## Result 0.34

## Task Which value of PBM binding z-score has been reported for `GCGACTGGGGCATCAGCAAGTTACCATAACTTAA` in the records?
## Result -0.805

## Task What PBM binding z-score value was documented for this sequence, `TCGAGTAGGTTAGGGGCATACAGAATGGCGTCGA` ?
## Result -0.198

## Task Any idea what its PBM binding z-score is? The sequence is `TGAATGAGGTTATAAGATAAGGGAACGTTGCAAA`
## Result 0.119

## Task Need PBM binding z-score of `AGAACGAGGGCAGGCTGAGTTGATAGCAGAGTAG` , thanks.
## Result -1.05

## Task // PBM binding z-score lookup, key: `GCGACTGGGGCATCAGCAGGTTACGATAACTTAA`
## Result -0.638

## Task Need PBM binding z-score of `GCCTGTAGATCAAGGTTAAGAAAGACTAAGCTAA` , thanks.
## Result -0.964

## Task # lookup: PBM binding z-score of `ACTAGTTGGTGAGCTGAGGTCACACACAATTCGG`
## Result 0.277

## Task Report PBM binding z-score for `AGAACGAGGGCACGCTGAGTTGGTAGCAGAGTAG` please.
## Result -0.719

## Task I would be grateful if you could share the reported PBM binding z-score for `CGAACTAGGTCTGAACAGGACAGTGAAGGATGAT` .
## Result -0.912

## Task GET /values?readout=PBM binding z-score&item= `TTACCAAGGTGAAGGTCGTAGATCCCTCTGTAGA`
## Result -0.742

## Task For `TTACCAAGGTGAGCTGAGGTCGTTGCTCCAACTC` , what is its reported PBM binding z-score?
## Result -1.17

## Task # get_value(readout='PBM binding z-score', item= `TCATATAGGTAAACAGGTGAGAGTCCGTAAGTTA` )
## Result 0.166

## Task Which value of PBM binding z-score has been reported for `TCTGCTAGGTTAGTTGGTCAGCTAACGAGCTGCC` in the records?
## Result -0.0822

## Task Field request: PBM binding z-score | item: `TCAAATAGGTAAAGGTGAAAGTCGAACGATATGA`
## Result 0.00812

## Task So what's the measured PBM binding z-score for this one? `TCATATAGGTAAATGCTAGTTGAAAGTCCGATCT`
## Result -0.0232

## Task Need PBM binding z-score of `TCATATAGTTAAAAGGTGAAAGTCGGTGTGGTAA` , thanks.
## Result 0.21
